- system-name: Avi-mGCPII (recombinant extracellular mouse GCPII) (Mus musculus, UniProt O35409)
- Construct: gene Folh1; extracellular domain (45-752), N-terminal biotinylated Avi-tag with TEV site, secreted from Drosophila S2 cells, streptavidin mutein purification
- Sequence (O35409 45-752): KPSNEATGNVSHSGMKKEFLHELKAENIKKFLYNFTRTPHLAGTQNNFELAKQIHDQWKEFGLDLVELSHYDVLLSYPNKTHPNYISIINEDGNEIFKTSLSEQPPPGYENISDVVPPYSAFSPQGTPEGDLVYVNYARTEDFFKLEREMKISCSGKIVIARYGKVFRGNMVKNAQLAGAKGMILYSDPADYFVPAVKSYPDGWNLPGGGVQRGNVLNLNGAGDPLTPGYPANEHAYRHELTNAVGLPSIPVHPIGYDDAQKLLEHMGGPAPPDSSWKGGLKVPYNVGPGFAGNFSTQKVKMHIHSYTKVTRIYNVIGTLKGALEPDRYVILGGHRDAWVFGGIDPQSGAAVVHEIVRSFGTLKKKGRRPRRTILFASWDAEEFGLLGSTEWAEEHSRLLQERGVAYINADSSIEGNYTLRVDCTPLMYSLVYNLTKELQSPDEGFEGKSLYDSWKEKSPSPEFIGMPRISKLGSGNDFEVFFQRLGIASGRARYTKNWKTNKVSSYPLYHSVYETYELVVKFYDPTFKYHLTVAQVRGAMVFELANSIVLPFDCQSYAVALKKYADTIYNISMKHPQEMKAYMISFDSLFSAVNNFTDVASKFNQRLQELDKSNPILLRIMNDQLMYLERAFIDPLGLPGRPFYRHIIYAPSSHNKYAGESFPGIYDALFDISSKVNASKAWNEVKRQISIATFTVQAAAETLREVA
- method-description: HPLC assay of pteroyl-di-L-glutamate cleavage
- Type: biochemical
- assay-context: read-out: K i (Avi-mGCPII)
Answer each item with its documented pKi.
Conceptually, pKi converts a concentration in mol/L into minus its log10.

Exercise: Tell us which pKi value is on record for O=C(O)CCc1ccc(O)c(CN(CCN(CC(=O)O)Cc2cc(CCC(=O)NCCCCCC(=O)NCCCC[C@H](NC(=O)N[C@@H](CCC(=O)O)C(=O)O)C(=O)O)ccc2O)CC(=O)O)c1
Key: 10.00

Exercise: Please indicate pKi recorded for N[C@@H](Cn1oc(=O)[nH]c1=O)C(=O)O [Quisqualate]
Key: 6.24

Exercise: Annotate the compound CC(C)C[C@H](NC(=O)N[C@@H](CCC(=O)O)C(=O)O)C(=O)O with its measured pKi.
Key: 8.23

---

- system-name: Avi-hGCPII (recombinant extracellular human GCPII) (Homo sapiens)
- Construct: gene FOLH1
- Sequence (Q04609 44-750 limits assumed): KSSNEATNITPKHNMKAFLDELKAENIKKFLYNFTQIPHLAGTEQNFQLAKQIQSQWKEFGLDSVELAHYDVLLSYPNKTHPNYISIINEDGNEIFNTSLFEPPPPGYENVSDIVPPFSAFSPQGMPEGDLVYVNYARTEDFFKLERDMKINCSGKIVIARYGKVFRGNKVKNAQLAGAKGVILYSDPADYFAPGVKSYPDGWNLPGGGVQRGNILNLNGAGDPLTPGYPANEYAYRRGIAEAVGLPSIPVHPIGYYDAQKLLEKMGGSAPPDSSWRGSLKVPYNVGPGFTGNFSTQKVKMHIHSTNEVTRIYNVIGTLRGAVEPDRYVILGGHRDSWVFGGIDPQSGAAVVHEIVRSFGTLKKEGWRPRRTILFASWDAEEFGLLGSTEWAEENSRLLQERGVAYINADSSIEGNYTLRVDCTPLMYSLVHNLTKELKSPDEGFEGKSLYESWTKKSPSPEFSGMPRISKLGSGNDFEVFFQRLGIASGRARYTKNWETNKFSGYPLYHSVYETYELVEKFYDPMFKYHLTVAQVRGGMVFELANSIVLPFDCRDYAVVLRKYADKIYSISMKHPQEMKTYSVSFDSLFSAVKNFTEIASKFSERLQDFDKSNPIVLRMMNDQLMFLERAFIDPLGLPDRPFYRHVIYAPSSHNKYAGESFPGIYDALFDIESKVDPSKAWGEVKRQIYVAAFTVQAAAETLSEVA
- method-description: HPLC assay of pteroyl-di-L-glutamate cleavage
- Assay type: biochemical
- assay-context: read-out: K i (Avi-hGCPII)
- Description: HPLC assay of pteroyl-di-L-glutamate cleavage on Avi-hGCPII (recombinant extracellular human GCPII)
assay-readout: Ki (nM)
# number only, unit nM dropped from output

Exercise: State, in one line, measured Ki of N[C@@H](Cn1oc(=O)[nH]c1=O)C(=O)O [Quisqualate]
Key: 520
